test: chemical genetic growth profiling, strain panel (AID 1159580);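 also: tested at 20 µM; growth read once vehicle control cultures reached saturation at 30 °C; 1 = growth at the plate median or of vehicle wells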; settings: S. cerevisiae deletion strains, growth OD, locus YCL061C, strain MRC1, active compounds read low
Hit rate of the full screen: of about 5,500 compounds, about 2,000 (36%) were called active. Roughly 18% stayed inconclusive and do not appear here. This is one part of the list.
assayEndpoint: normalized growth
# answer = number (no unit)

Past entries and their recorded results:
- molecule: "C=C(C)[C@@H]1CC[C@]2(CO)CC[C@]3(C)[C@H](CCC4[C@@]5(C)CC[C@H](O)C(C)(C)C5CC[C@]43C)C12 (some centres undefined)"
  normalized growth: 1.01
- molecule: "NCCNCCNCCN"
  normalized growth: 0.986
- molecule: "COC(=O)CSCCc1nc(-c2ccc([N+](=O)[O-])cc2)cs1"
  normalized growth: 0.97
- molecule: "CC(=O)[C@@]1(O)CCC2C3CCC4=CC(=O)CC[C@]4(C)C3CC[C@@]21C (some centres undefined)"
  normalized growth: 0.987
- molecule: "COc1cc(/C=C/C(=O)N2CCC=CC2=O)cc(OC)c1OC"
  normalized growth: 1.01
- molecule: "COC(=O)c1ccccc1CSc1nccc(C(F)(F)F)n1"
  normalized growth: 0.956

Supply recorded normalized growth for CC(NCCC(c1ccccc1)c1ccccc1)c1ccccc1 (centres undefined) here.
1.02

Entry CCOc1cccc(C(=O)c2ccc(O)c(O)c2O)c1 needs its normalized growth filled in; supply it.
0.933

Tell me its normalized growth given CNCC[C@@H](Oc1ccccc1)c1ccccc1 as the entry.
0.982

###

assay: chemical genetic growth profiling, strain panel (AID 1159580);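 also: tested at 20 µM; growth read once vehicle control cultures reached saturation at 30 °C; 1 = growth at the plate median or of vehicle wells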; details: S. cerevisiae deletion strains, growth OD, locus YHR030C, strain SLT2, active compounds read low
In all, about 5,500 compounds went through this assay and about 2,000 (36%) were called active. About 18% were inconclusive and are not listed. The list shows a part of the results.
Flag rule - normalized growth less than 1 flags TRUE; the remaining entries get FALSE.

- inputSmiles: "O=C(c1cccc([N+](=O)[O-])c1)c1cc2cc(Br)cc(Br)c2o1"
  discreteLabel: "TRUE"

Report whether reported normalized growth is lower than 1 (strictly) for O=c1c(-c2ccccc2)c(O)c2cccc3c4ccccc4n1c23
TRUE

Please state whether normalized growth is below 1 for Cn1nc(-c2ccccc2)c(O)c(N=Nc2ccccc2)c1=O
TRUE

###

Items are presented alongside their recorded normalized growth.
assay: chemical genetic growth profiling, strain panel (AID 1159580);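 also: tested at 20 µM; growth read once vehicle control cultures reached saturation at 30 °C; 1 = growth at the plate median or of vehicle wells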; conditions: S. cerevisiae deletion strains, growth OD, locus YDR392W, strain spt3, active compounds read low
Out of some 5,500 compounds screened, about 2,000 (36%) were called active. About 18% were inconclusive and are not listed. The list shows a part of the results.
Give your answer as a number; write no unit.

Give the value of normalized growth reported for the following: CC(=O)OCC(=O)[C@@]1(O)CCC2C3CCC4=CC(=O)CC[C@]4(C)C3[C@@H](O)C[C@@]21C (some centres not stated)
1.04

State, in one line, measured normalized growth of O=C(OC[C@H]1O[C@H](OC(=O)c2cc(O)c(O)c(OC(=O)c3cc(O)c(O)c(O)c3)c2)[C@H](OC(=O)c2cc(O)c(O)c(OC(=O)c3cc(O)c(O)c(O)c3)c2)[C@@H](OC(=O)c2cc(O)c(O)c(OC(=O)c3cc(O)c(O)c(O)c3)c2)[C@@H]1OC(=O)c1cc(O)c(O)c(OC(=O)c2cc(O)c(O)c(O)c2)c1)c1cc(O)c(O)c(OC(=O)c2cc(O)c(O)c(O)c2)c1
0.742
